# test-target: Human recombinant DHX9 protein (Homo sapiens (Human))
# Sequence (Q08211 whole entry): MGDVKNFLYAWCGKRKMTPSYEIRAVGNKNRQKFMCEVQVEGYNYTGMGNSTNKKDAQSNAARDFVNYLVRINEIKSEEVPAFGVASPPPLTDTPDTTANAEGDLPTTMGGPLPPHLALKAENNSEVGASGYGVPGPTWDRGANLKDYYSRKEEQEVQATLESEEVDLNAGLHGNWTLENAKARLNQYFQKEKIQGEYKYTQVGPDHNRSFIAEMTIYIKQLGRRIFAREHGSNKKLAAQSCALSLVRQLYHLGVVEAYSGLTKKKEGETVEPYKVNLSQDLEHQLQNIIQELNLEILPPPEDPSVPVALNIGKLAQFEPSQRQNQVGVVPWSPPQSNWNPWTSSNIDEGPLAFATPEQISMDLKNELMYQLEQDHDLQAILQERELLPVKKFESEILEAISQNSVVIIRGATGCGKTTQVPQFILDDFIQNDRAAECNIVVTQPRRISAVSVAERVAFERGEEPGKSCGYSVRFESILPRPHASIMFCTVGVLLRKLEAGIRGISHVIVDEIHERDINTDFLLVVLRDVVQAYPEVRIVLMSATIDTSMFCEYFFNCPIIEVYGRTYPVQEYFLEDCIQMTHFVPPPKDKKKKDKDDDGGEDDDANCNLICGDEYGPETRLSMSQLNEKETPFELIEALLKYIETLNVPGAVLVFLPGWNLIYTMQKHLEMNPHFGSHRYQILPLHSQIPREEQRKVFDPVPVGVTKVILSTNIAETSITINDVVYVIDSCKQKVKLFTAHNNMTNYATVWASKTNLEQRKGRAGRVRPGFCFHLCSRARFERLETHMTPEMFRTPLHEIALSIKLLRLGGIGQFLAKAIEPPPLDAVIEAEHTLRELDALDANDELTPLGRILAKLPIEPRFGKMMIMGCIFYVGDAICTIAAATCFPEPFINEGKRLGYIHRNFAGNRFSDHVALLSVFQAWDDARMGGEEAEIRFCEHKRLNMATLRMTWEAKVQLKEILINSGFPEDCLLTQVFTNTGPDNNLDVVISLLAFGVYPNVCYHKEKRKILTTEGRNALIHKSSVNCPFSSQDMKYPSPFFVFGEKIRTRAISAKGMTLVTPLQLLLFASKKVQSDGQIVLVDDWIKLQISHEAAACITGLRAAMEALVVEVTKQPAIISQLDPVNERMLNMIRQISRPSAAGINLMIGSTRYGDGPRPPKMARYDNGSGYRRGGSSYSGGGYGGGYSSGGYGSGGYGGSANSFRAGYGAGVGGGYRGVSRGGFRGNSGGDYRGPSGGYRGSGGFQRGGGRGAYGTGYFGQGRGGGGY
# test-method-notes: DHX9 ATPase assay (ADP-Glo)
# Type: biochemical
# condition-context: read-out: DHX9 Biochemical Inflection Point
measured-property: IC50 (nM)

// known answers, use as guide
CS(=O)(=O)Nc1cc(Cl)cc(NC(=O)c2cnn(-c3c(F)cc(F)cc3OCc3cnco3)c2)c1 | 255
Cc1cc(C(=O)Nc2cc(Cl)cc(NS(=O)(=O)C(F)F)c2)cn1-c1ccc(N2CCOCC2)cn1 | 185
CC(=O)N1CCN(c2cnc(-n3cc(C(=O)Nc4cc(Br)cc(NS(C)(=O)=O)c4)cn3)c(C)c2)CC1 | 26.1
CCOc1cnc(-c2cc(C(=O)Nc3cc(Cl)cc(NS(C)(=O)=O)c3)sc2C)c(F)c1 | 16.2

a. Cc1cc(C(=O)Nc2cc(Cl)cc(NS(C)(=O)=O)c2)cn1-c1ccc(N(C)C2CCOC2)cn1 (stereo not drawn) [Example 675]
b. CC(C)(O)c1cc(C(=O)Nc2cc(Cl)cc(NS(C)(=O)=O)c2)cn1-c1ccccn1
c. Cn1cc(C(=O)Nc2cc(Cl)cc(NS(C)(=O)=O)c2)cc1-c1ncc(N2CC(F)C2)cn1
d. Cn1cc(C(=O)Nc2cc(Cl)cc(NS(C)(=O)=O)c2)cc1-c1ccccc1/C=C/c1cncc(F)c1
e. Cn1cc(C(=O)Nc2cc(Cl)cc(NS(C)(=O)=O)c2)cc1-c1ncccc1OCc1cncc(F)c1
Q: Reorder the items by IC50, least to greatest. Please respond with the labels ordered as the question requires.
Ans: e, a, c, b, d

1. CS(=O)(=O)Nc1cc(Cl)cc(NC(=O)c2cnn(-c3ccccc3COc3cncc(F)c3)c2)c1
2. Cn1cc(C(=O)Nc2cc(Cl)cc(NS(C)(=O)=O)c2)cc1-c1ncccc1Oc1cccnc1
3. CS(=O)(=O)Nc1cc(Cl)cc(NC(=O)c2cnn(-c3ccc(N4CC5CCC(C4)O5)cn3)c2)c1
4. Cn1cc(C(=O)Nc2cc(Cl)cc(NS(C)(=O)=O)c2)cc1-c1ncc(F)cc1CCc1cncc(F)c1
Q: Output the entries ranked by IC50 from maximum down to minimum. Please respond with the labels ordered as the question requires.
Ans: 4, 1, 2, 3
(4: 158 nM, 1: 70.8 nM, 2: 11.4 nM, 3: 4.2 nM)

---

# test-target: Human recombinant DHX9 protein (Homo sapiens (Human))
# test-method-notes: DHX9 ATPase assay (ADP-Glo)
# Assay type: biochemical
measured-property: DHX9 Biochemical Max Inhibition (%)

CS(=O)(=O)Nc1cc(Cl)cc(NC(=O)c2cc(-c3ccccc3)cs2)c1 | 55.5
CS(=O)(=O)Nc1cc(Cl)cc(NC(=O)c2cnn(-c3ncccc3C#N)c2)c1 | 57.2
CS(=O)(=O)Nc1cc(Cl)cc(NC(=O)c2cc(-c3ccccc3)c(CO)s2)c1 | 72.5
COc1cnc(-c2cc(C(=O)Nc3cc(Cl)cc(NS(C)(=O)=O)c3)sc2C)nc1 | 83.05
Cc1sc(C(=O)Nc2cc(Cl)cc(NS(C)(=O)=O)c2)cc1-c1ncccn1 | 71

A. CS(=N)(=O)Nc1cc(Br)cc(NC(=O)c2cc(-c3ccccn3)cs2)c1 (stereo not shown)
B. CS(=O)(=O)Nc1cc(Br)cc(NC(=O)c2cnn(-c3ccccc3C=O)c2)c1
Q: Please indicate which has the smaller reported DHX9 Biochemical Max Inhibition: A , or B . Use the label to indicate which entry you chose.
Ans: B
(B: 44.4%, A: 63.5%)
